The reader will find reported inhibition at 10 µM values listed item by item below.
- system: BTK (Homo sapiens)
- Sequence (Q06187 402-655 limits assumed): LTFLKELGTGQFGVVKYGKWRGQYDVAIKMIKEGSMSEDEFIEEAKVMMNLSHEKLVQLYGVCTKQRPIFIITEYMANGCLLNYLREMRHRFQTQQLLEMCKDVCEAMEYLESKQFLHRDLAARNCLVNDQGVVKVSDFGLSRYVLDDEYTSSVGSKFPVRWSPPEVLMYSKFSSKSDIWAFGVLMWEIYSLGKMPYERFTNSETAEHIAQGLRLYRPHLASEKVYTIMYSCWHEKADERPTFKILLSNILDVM
- protocol details: biochemical
- experimental setup: read-out: BTK inhibition (%), 0.75 uM BTK, […] probe 3l, 15 min preincubation

[
  {
    "sample smiles": "c1csc(-c2ccc(-c3cccs3)s2)c1",
    "inhibition at 10 µM (%)": 0
  },
  {
    "sample smiles": "CN1C(=O)[C@@H](NC(=O)c2cc(Cc3ccccc3)on2)COc2ccccc21",
    "inhibition at 10 µM (%)": 3.1
  },
  {
    "sample smiles": "CC(C)=CCC/C(C)=C\\CO",
    "inhibition at 10 µM (%)": 3.1
  },
  {
    "sample smiles": "COC(=O)N1CCN(Cc2cccc(NC(=O)Nc3ccc(C)nc3)c2F)CC1",
    "inhibition at 10 µM (%)": 0.8
  },
  {
    "sample smiles": "O=C(/C=C/c1ccc(CN(CCO)CCc2c[nH]c3ccccc23)cc1)NO",
    "inhibition at 10 µM (%)": -9.3
  },
  {
    "sample smiles": "C/C=C/c1ccc(OC)cc1",
    "inhibition at 10 µM (%)": 18.7
  },
  {
    "sample smiles": "C[C@@H]1CC(=O)NN=C1c1ccc(NN=C(C#N)C#N)cc1",
    "inhibition at 10 µM (%)": 21.8
  },
  {
    "sample smiles": "CCOc1ccc2ccccc2c1C(=O)N[C@@H]1C(=O)N2[C@@H]1SC(C)(C)[C@@H]2C(=O)O",
    "inhibition at 10 µM (%)": -11.7
  },
  {
    "sample smiles": "CCOc1ccc(Cc2cc([C@]34OC[C@](CO)(O3)[C@@H](O)[C@H](O)[C@H]4O)ccc2Cl)cc1",
    "inhibition at 10 µM (%)": 7.7
  },
  {
    "sample smiles": "O=S(=O)(c1ccc2c(c1)C(=NO)c1cc(S(=O)(=O)N3CCCCC3)ccc1-2)N1CCCCC1",
    "inhibition at 10 µM (%)": -18.5
  }
]
